biological target: T1, human CLDN18.2 (human); assay: imaging cytometry (% fluorescent cells), HEK293T-hCLDN18.2 cells
T1 construct: over-expressed on HEK293T or OCUM-1 cells by lentivirus; KATO-III and NUGC4 gastric cancer cells express it naturally; also called hCLDN18.2; hCLDNA18.2
# Lookup of reported EC50 keyed by entry

{"BINDER": "27B5-chIgG1 (antibody, V domains shown, human-mouse chimeric antibody, human IgG1/kappa constant regions) VH: QVQLQQPGTELVKPGASVKLSCKASGYTFTSYWMHWVKQRPGQGLEWIGNIHPSNGGSNHNEKFKSKATLTVDKSSSTAYMQLSSLTSEDSAVYYCAPIYYGNSLAYWGHGTLVTVSA VL: DVVMTQSPSSLTVTAGEKVTMSCKSSQSLLNSGNQKNYLTWYQQKPGQPPKLLLYWASTRESGVPDRFTGSGSGTDFTLTISSVQAEDLAVYYCQNSYFYPFTFGSGTKLEIKR", "EC50 (µg/mL)": 0.108}
{"BINDER": "5F9-chIgG1 (antibody, V domains shown, human-mouse chimeric antibody, human IgG1/kappa constant regions) VH: QVQLQQSGAELVKPGASVKLSCKASGYTFTSYWMHWVKQRPGQGLEWIGMIHPNSVSTNYNEKFKSKATLTVDKSSSTAYMQLSSLTSEDSAVYYCAVYFDYWGQGTTLTVSS VL: DIQVTQSPSSLSASLGERVSLTCRASQDIGSSLNWLQQEPDGTIKRLIYASSSLNSGVPKRFSVSRSGSDYSLTISSLESEDFVDYYCLQYATSPPTFGGGTKLEIKR", "EC50 (µg/mL)": 0.283}
{"BINDER": "175D10 (antibody, human IgG1, kappa, V domains shown) VH: QVQLQQPGAELVRPGASVKLSCKASGYTFTSYWINWVKQRPGQGLEWIGNIYPSDSYTNYNQKFKDKATLTVDKSSSTAYMQLSSPTSEDSAVYYCTRSWRGNSFDYWGQGTTLTVSS VL: DIVMTQSPSSLTVTAGEKVTMSCKSSQSLLNSGNQKNYLTWYQQKPGQPPKLLIYWASTRESGVPDRFTGSGSGTDFTLTISSVQAEDLAVYYCQNDYSYPFTFGSGTKLEIKR", "EC50 (µg/mL)": 0.536}
{"BINDER": "9F3-chIgG1 (antibody, V domains shown, human-mouse chimeric antibody, human IgG1/kappa constant regions) VH: EVRLQQSGPELVKPGASVKIPCKASGYKFTDYNMDWVKQSHGKSLEWIGEINPNNGGTIYNQKFKGKATLTVDKSSSTAYMELRSLTSEDTAVYYCARIYYGNSFAYWGQGTLVTVSS VL: DIVMTQSPSSLTVTAGEKVTMSCKSSQSLLNSGNLKNYLTWYQQKPGQPPKLLIYWASTRESGVPDRFTGSGSGTDFTLTISSVQAEDLAVYYCQNDYFYPLTFGAGTKLEIKR", "EC50 (µg/mL)": 0.104}
